system: UACC-257 melanoma; assay: NCI-60 one-dose screen, 48 h (100 = growth as untreated, 0 = no growth, -100 = all killed); conditions: 10 µM unless noted
The panel holds about 83,000 compounds, 20% with a hit somewhere; the sample as a whole holds those more often.
Criterion: growth meeting or surpassing 90%. Met: YES. Not met: NO.

• C=CCn1c(SCC(=O)c2ccccc2)nnc1-c1c[nH]c2ccccc12 = YES

Now look at this one.
Problem: Say whether Cn1ccnc1C(=O)/C=C/c1ccc(NC(=O)Nc2ccc(Cl)cc2)cc1 shows growth of 90% or more.
Solution: YES

----------
test system: SK-MEL-5 melanoma; assay: NCI-60 one-dose screen, 48 h (100 = growth as untreated, 0 = no growth, -100 = all killed); settings: 10 µM unless noted
The panel holds about 83,000 compounds, 20% with a hit somewhere; the sample as a whole holds those more often.
Assay Readout: growth (%)
Give the value, in units of %, as a plain number.

Record excerpt, results attached:
• CC(C)(C)Nc1nc2c(OCCc3ccccc3)cccn2c1-c1ccc(Cl)cc1 = -71.6
• CN1C(=O)N(c2ccccc2)C2N=C(N/N=C/c3ccccc3)SC21 (stereo not drawn) = 5.76
• Clc1ccc2oc3c(NCCCN4CCOCC4)c4ccccc4nc3c2c1 = 44.2
• CC(=O)Oc1ccccc1C(=O)Nc1cc(C(C)C)ccc1C = -31.9
• C[C@@H](Nc1c(C#N)cnc2ccc(-c3cnc(N)nc3)cc12)c1ccccc1 = -74.2

Problem: Need growth, item C#Cc1nc(C2=C(C)C(OC(=O)CCC(=O)O)CC2)cs1 (stereo not drawn)
Solution: 101

Problem: Need growth, item Cc1ccc(-c2nc(C(Cl)Cl)nc3cc(-c4ccccc4)nn23)cc1
Solution: 67.3

Problem: Need growth, item COc1ccc(C(=O)/C=C/c2ccc(OCc3ccc(C)cc3)c(OC)c2)cc1OC
Solution: 64.5

----------
tested on: RPMI-8226 leukemia; test: NCI-60 one-dose screen, 48 h; settings: 10 µM unless noted
About 83,000 compounds went through this panel and 20% of them were active in at least one assay; those are over-represented in the sample as a whole. Calls of active or inactive are those of the source. How the source made its calls: active means growth percent below 10; inactive means the rest.
Give your call using only these classes: active, inactive

Problem: Called result for O=C1NC(=C(Cl)Cl)/C(=N/S(=O)(=O)N2CCCCC2CC2(C(F)(F)F)N=N2)N1 (centres undefined)
Solution: active

Problem: Called result for O=C(CSc1nc2sc3c(c2c(=O)n1-c1ccc(Cl)cc1)CCCC3)N/N=C/c1ccc(F)cc1
Solution: inactive

----------
Collected growth values appear next to each entry.
test system: HOP-92 NSCLC; assay: NCI-60 one-dose screen, 48 h (100 = growth as untreated, 0 = no growth, -100 = all killed); conditions: 10 µM unless noted
This is part of a sample that, as a whole, favours compounds with a hit. Of some 83,000 tested, about 20% had one in any assay.
Give the value, in units of %, as a plain number.

Record excerpt, results attached:
* COc1cccc(COc2ccc(/C=C3/C(=O)Nc4cc(Cl)ccc43)cc2)c1 | 79.8
* CN(C)CCCOc1c2ccc(Cl)cc2nc2c1oc1ccc(Cl)cc12 | 3.27
* N#Cc1nc(-c2ccccc2)oc1N1CCC(CO)C1 (stereo not given) | 129
* Nc1cc(-c2c[nH]c3ccccc23)nc2cc(-c3c[nH]c4ccccc34)nn12 | 72.5
* Nc1cc(-c2c[nH]c3ccc(Cl)cc23)nc2cc(-c3c[nH]c4ccc(Cl)cc34)nn12 | 28.9

Problem: Need growth, item O=C(CSc1nc2sc3c(c2c(=O)n1-c1ccc(Cl)cc1)CCCC3)NNC(=O)Nc1cccc(C(F)(F)F)c1
Solution: -14.1

Problem: Need growth, item Cc1nc(-c2cc3ccccc3oc2=O)ccc1C(=O)/C=C/c1ccc(Cl)c(Cl)c1
Solution: 95.4

Problem: Need growth, item Clc1ccc2c(NCCCN3CCOCC3)c3oc4ccccc4c3nc2c1
Solution: 48.7

Problem: Need growth, item CCOC(=O)c1sc(NCC(=O)Nc2cccc([N+](=O)[O-])c2)c(C(=O)OCC)c1C
Solution: -19.5
